Test system: A549
Experiment: Cytotoxicity assay (propidium iodide), A549
Assay type: cell-based
Conditions: Homo sapiens; A549 (C1a, lung); 48 hours
Kindly supply the reported IC50 values for the records listed here.

# count of solved cases: 7
* CN(N=Cc1cnc2ccc(-c3cccnc3)cn12)S(=O)(=O)C1CCCCC1 | 0.01 to 5 µM
* COc1ccc(S(=O)(=O)N(C)N=Cc2cnc3ccc(-c4cccnc4)cn23)cc1 | 0.01 to 5 µM
* CN(N=Cc1cnc2ccc(-c3cccnc3)cn12)S(=O)(=O)c1cccs1 | 0.01 to 5 µM
* CN(N=Cc1cnc2ccc(-c3cccnc3)cn12)S(=O)(=O)c1cccc(Br)c1 | > 5 µM
* CN(N=Cc1cnc2ccc(-c3cccnc3)cn12)S(=O)(=O)c1cccc(F)c1 | 0.01 to 5 µM
* Cc1ccc(S(=O)(=O)N(C)N=Cc2cnc3ccc(-c4cccnc4)cn23)cc1F | > 5 µM
* CN(N=Cc1cnc2ccc(-c3cccnc3)cn12)S(=O)(=O)c1ccc(C#N)cc1 | > 5 µM

# input Please tell me: IC50 of CN(N=Cc1cnc2ccc(-c3cccnc3)cn12)S(=O)(=O)c1cc(C(F)(F)F)cc(C(F)(F)F)c1 , system A549?
# output 0.01 to 5 µM

Reference source for all entries: patent US8741932B2
